system: MCF7; assay: Growth inhibition of human MCF7 cells by MTT assay; format: functional, cell-based
QUANTITY MEASURED: IC50 (µM)
Write down the numeric answer in µM and omit the unit.

Here's what some known entries look like.
COMPOUND	IC50 (µM)
O=P1(C(/C=C/c2ccccc2)P2(=O)Oc3ccccc3CN2c2ccc(F)c(Cl)c2)Oc2ccccc2CN1c1ccc(F)c(Cl)c1 (stereo not drawn)	13.1
Cc1ccc(C(P2(=O)Oc3ccccc3CN2c2ccc(F)c(Cl)c2)P2(=O)Oc3ccccc3CN2c2ccc(F)c(Cl)c2)cc1 (stereo not drawn)	12.7
O=P1(C(c2ccncc2)P2(=O)Oc3ccccc3CN2c2ccc(F)c(Cl)c2)Oc2ccccc2CN1c1ccc(F)c(Cl)c1 (stereo not drawn)	11.5
C/C=C/C(P1(=O)Oc2ccccc2CN1c1ccc(F)c(Cl)c1)P1(=O)Oc2ccccc2CN1c1ccc(F)c(Cl)c1 (stereo not drawn)	11.3

(Q) Supply recorded IC50 for O=P1(C(c2ccccc2)P2(=O)Oc3ccccc3CN2c2ccc(F)c(Cl)c2)Oc2ccccc2CN1c1ccc(F)c(Cl)c1 (stereo not drawn) here.
(A) 4.05

* * *

Below, each entry is listed with its recorded IC50.
tested on: MCF7; experiment: Growth inhibition of human MCF7 cells by MTT assay; format: functional, cell-based

COMPOUND	RESULT
CC1(C)COP(=O)(C(c2ccccc2)P2(=O)OCC(C)(C)CO2)OC1	> 1000 µM
CC1(C)COP(=O)(C(c2ccc(Cl)cc2)P2(=O)OCC(C)(C)CO2)OC1	> 1000 µM
C/C=C/C(P1(=O)OCC(C)(C)CO1)P1(=O)OCC(C)(C)CO1	> 1000 µM
NP(=O)(O)C(c1ccc(Cl)cc1)P(N)(=O)O (centres undefined)	71.3 µM
O=[N+]([O-])c1cccc(C(P2(=O)Oc3ccccc3CN2c2ccc(F)c(Cl)c2)P2(=O)Oc3ccccc3CN2c2ccc(F)c(Cl)c2)c1 (centres undefined)	17.6 µM

(Q) Supply recorded IC50 for O=P1(C(c2ccc(Cl)cc2)P2(=O)Oc3ccccc3CN2c2ccc(F)c(Cl)c2)Oc2ccccc2CN1c1ccc(F)c(Cl)c1 (centres undefined) here.
(A) 14.3 µM

(Q) Supply recorded IC50 for CC1(C)COP(=O)(C(c2cccc([N+](=O)[O-])c2)P2(=O)OCC(C)(C)CO2)OC1 here.
(A) > 1000 µM

(Q) Supply recorded IC50 for CCN(CC)c1ccc(C(P2(=O)Oc3ccccc3CN2c2ccc(F)c(Cl)c2)P2(=O)Oc3ccccc3CN2c2ccc(F)c(Cl)c2)cc1 (centres undefined) here.
(A) 5.71 µM

(Q) Supply recorded IC50 for CC1(C)COP(=O)(C(c2ccncc2)P2(=O)OCC(C)(C)CO2)OC1 here.
(A) > 1000 µM

* * *

Below, each entry is listed with its recorded pIC50.
system: MCF7; assay: Growth inhibition of human MCF7 cells by MTT assay; format: functional, cell-based
pIC50: −log10 of the molar value.

Here's what some known entries look like.
STRUCTURE STRING	pIC50
CCN(CC)c1ccc(C(P2(=O)OCC(C)(C)CO2)P2(=O)OCC(C)(C)CO2)cc1	< 3.00
Cc1ccc(C(P2(=O)OCC(C)(C)CO2)P2(=O)OCC(C)(C)CO2)cc1	< 3.00

Consider the record given below.
(Q) Supply recorded pIC50 for CC1(C)COP(=O)(C(/C=C/c2ccccc2)P2(=O)OCC(C)(C)CO2)OC1 here.
(A) < 3.00
